Reported Salmonella at time Interval 4 hr % reduction values follow for various compounds
# Test system: Salmonella typhimurium
# Test method notes: Example 1: effect of pH buffering of acetic and propionic acid on antimicrobial activity in water
# Assay type: cell-based
# Condition summary: Product Conc. 0.1 (% acid solution in water); 4 hr
Endpoint label: Salmonella at time Interval 4 hr % reduction (%)

INSERT INTO results (compound, readout_number) VALUES
  ('CCC(=O)O [Propionic pH 6, Propionic acid]', 0),
  ('CCC(=O)O [Propionic pH 5, Propionic acid]', 46),
  ('CC(=O)O [Acetic pH 7, Acetic acid]', 0),
  ('CCC(=O)O [Propionic pH 3, Propionic acid]', 60),
  ('CC(=O)O [Acetic pH 3, Acetic acid]', 42),
  ('CC(=O)O [Acetic pH 1, Acetic acid]', 65);

====

# System: Salmonella typhimurium
# Test method notes: Example 2: effect of carbon chain length of individual organic acids on antimicrobial activity in water
# Assay type: cell-based
# Condition summary: Product Conc. 0.1 (% acid solution in water); 24 hr
Endpoint label: Salmonella at time Interval 24 hr cfu/g (cfu/g)

INSERT INTO results (smi, readout_number) VALUES
  ('CCCCCCCCC(=O)O', 0),
  ('CCC(=O)O', 30),
  ('CCCCCC(=O)O', 0),
  ('CCCCCCCCCCCC(=O)O', 0),
  ('CCCCCCC(=O)O', 0),
  ('CCCCCCCC(=O)O', 0),
  ('CCCCC(=O)O', 17);

====

# System: Salmonella typhimurium
# Test method notes: Example 2: effect of carbon chain length of individual organic acids on antimicrobial activity in water
# Format: cell-based
# Condition summary: Product Conc. 0.05 (% acid solution in water); 4 hr
Please mark TRUE if the recorded Salmonella at time Interval 4 hr cfu/g is equal to or greater than 900 cfu/g, and FALSE if it falls below.

INSERT INTO results (smi, class_assignment) VALUES
  ('CCCCCC(=O)O', 'TRUE'),
  ('CCCCCCC(=O)O', 'FALSE'),
  ('CCCCCCCC(=O)O', 'TRUE'),
  ('CCCCCCCCC(=O)O', 'FALSE'),
  ('CCCCCCCCCCCC(=O)O', 'FALSE'),
  ('CCCCC(=O)O', 'TRUE');

====

Reported Salmonella at time Interval 4 hr cfu/g is given for each of the following compounds.
# System: Salmonella typhimurium
# Test method notes: Example 1: effect of pH buffering of acetic and propionic acid on antimicrobial activity in water
# Format: cell-based
# Condition summary: Product Conc. 0.025 (% acid solution in water); 4 hr
Endpoint label: Salmonella at time Interval 4 hr cfu/g (cfu/g)

INSERT INTO assay_data (compound, endpoint_label, qualifier_symbol, readout_number) VALUES
  ('CC(=O)O [Acetic pH 1, Acetic acid]', 'Salmonella at time Interval 4 hr cfu/g', '=', 883),
  ('CCC(=O)O [Propionic pH 6, Propionic acid]', 'Salmonella at time Interval 4 hr cfu/g', '>', 1505),
  ('CC(=O)O [Acetic pH 6, Acetic acid]', 'Salmonella at time Interval 4 hr cfu/g', '=', 1500),
  ('CC(=O)O [Acetic pH 5, Acetic acid]', 'Salmonella at time Interval 4 hr cfu/g', '=', 1267),
  ('CCC(=O)O [Propionic pH 3, Propionic acid]', 'Salmonella at time Interval 4 hr cfu/g', '=', 1467),
  ('CCC(=O)O [Propionic pH 1, Propionic acid]', 'Salmonella at time Interval 4 hr cfu/g', '=', 1200),
  ('CCC(=O)O [Propionic pH 2, Propionic acid]', 'Salmonella at time Interval 4 hr cfu/g', '=', 1067),
  ('CC(=O)O [Acetic pH 2, Acetic acid]', 'Salmonella at time Interval 4 hr cfu/g', '=', 920),
  ('CC(=O)O [Acetic pH 3, Acetic acid]', 'Salmonella at time Interval 4 hr cfu/g', '=', 1100),
  ('CCC(=O)O [Propionic pH 7, Propionic acid]', 'Salmonella at time Interval 4 hr cfu/g', '>', 1505),
  ('CC(=O)O [Acetic pH 7, Acetic acid]', 'Salmonella at time Interval 4 hr cfu/g', '=', 1567),
  ('CCC(=O)O [Propionic pH 5, Propionic acid]', 'Salmonella at time Interval 4 hr cfu/g', '>', 1505),
  ('CCC(=O)O [Propionic pH 4, Propionic acid]', 'Salmonella at time Interval 4 hr cfu/g', '=', 1367),
  ('CC(=O)O [Acetic pH 4, Acetic acid]', 'Salmonella at time Interval 4 hr cfu/g', '=', 1067);
